Assignment: determine reported growth for the given compounds.
Tested on: 786-0 renal
Test: NCI-60 one-dose screen, 48 h (100 = growth as untreated, 0 = no growth, -100 = all killed)
Conditions: 10 µM
About 83,000 compounds went through this panel and 20% of them were active in at least one assay; those are over-represented in the sample as a whole.
Response body: numeric value in %, unit text excluded.

For the compound shown here, "CN1CCN(CCCN2c3ccccc3Sc3ccc(C(F)(F)F)cc32)CC1" , give the reported growth. 37.2

Which value of growth has been reported for "CC[N+](CC)=c1ccc2nc3c(cc(N)c4ccccc43)oc-2c1" in the records? -79

Entry "O=C(/C=C/c1cccnc1)c1ccccc1" : reported growth = ? 93.7

Requested field: growth. Item: CCCCCCCCCCCCCCCCCCOCC(COP(=O)([O-])OCC[N+](C)(C)C)OC (configuration not stated) 87.6

Suppose we examine the compound "NNc1c2ccccc2nc2ccccc12" ; what growth value has been reported? 34.2

Record request: growth value, item "CC(=O)Nc1cc(C)ccc1C" 106

growth for "O=C(O)COc1ccc(OCC(=O)O)cc1" ? -9.28

###

Test system: RXF 393 renal
Assay: NCI-60 one-dose screen, 48 h (100 = growth as untreated, 0 = no growth, -100 = all killed)
Conditions: 10 µM unless noted
Compounds without any hit were thinned out: in the full panel of roughly 83,000, 20% have a hit. Calls of active or inactive are those of the source. How the source made its calls: active means growth percent below 10; inactive means the rest.
experimental_readout: growth

Name the recorded growth for "COc1ccc(CC(=O)c2ccc(O)cc2O)cc1" . 144% (inactive)

Need growth of "Cc1nc(N=C(N)N)nc2ccc3ccccc3c12" , thanks. 4.87% (active)

Item CO[C@H](C(=O)[C@@H](O)[C@@H](C)O)[C@@H]1Cc2cc3cc(OC4CC(OC5CC(O)C(O)C(C)O5)C(O)C(C)O4)c(C)c(O)c3c(O)c2C(=O)[C@H]1OC1CC(OC2CC(OC3CC(C)(O)C(O)C(C)O3)C(O)C(C)O2)C(O)C(C)O1 (stereo partly drawn) has what recorded growth? 5.86% (active)

###

Test system: HOP-92 NSCLC
Assay: NCI-60 one-dose screen, 48 h
Conditions: 10 µM
Compounds without any hit were thinned out: in the full panel of roughly 83,000, 20% have a hit. Activity calls are given as the source filed them. How the source made its calls: active means growth percent below 10; inactive means the rest.
Choose one outcome from this list and give only that: active, inactive

Test call, this compound: COC(=O)C1C(O)C(C)C(O)C(C)C=C(C)C2=C3C(=C(C)C(=O)c4c(O)c(c(C)c(OC(C)=O)c43)NC(=O)C(C)=C/C=C\C(C)C(O)C(C)C1O)OCO2 (stereo unspecified) active

How did this test come out for CCCC1CCC(=C2C(=O)CCC2=O)O1 (stereo unspecified) ? inactive

Dear all, I need the recorded test outcome for O=c1ccn(C2CC(O)C(COC(c3ccccc3)(c3ccccc3)c3ccccc3)O2)c(=O)[nH]1 (stereo unspecified) , thank you. inactive

Answer briefly: the call reported for "Clc1cc(Cl)c(Cl)nn1" in this assay. inactive

Call for entry "O=C(/C=C/c1ccccn1)c1ccccc1" : inactive

What classification did "CCCCCCCCCCSC(=N)N" end up with in this test? inactive
